Here we list molecules with their recorded log10 of MIC when tested on Staphylococcus epidermidis.
Hi team, quick reminder: these entries are log10 of MIC (µM).

# record_smiles, log10 of MIC
measured = [
    ("CC[C@H](C)[C@H](NC(=O)[C@H](CCCCN)NC(=O)[C@H](CCC(N)=O)NC(=O)[C@H](Cc1c[nH]c2ccccc12)NC(=O)[C@@H](NC(=O)[C@H](CCCN=C(N)N)NC(=O)[C@@H](N)CCCCN)[C@@H](C)CC)C(=O)N[C@@H](CCCCN)C(=O)N[C@@H](CC(N)=O)C(=O)N[C@@H](Cc1ccccc1)C(=O)N[C@@H](Cc1ccccc1)C(=O)N[C@@H](CCC(N)=O)C(=O)N[C@@H](CCCCN)C(=O)N[C@@H](CC(C)C)C(=O)O", 1.40),
]

State the recorded log10 of MIC for every item in the following list.
1. CC[C@H](C)[C@H](NC(=O)[C@@H](N)CCCN=C(N)N)C(=O)N[C@@H](CCCN=C(N)N)C(=O)N[C@@H](CCCN=C(N)N)C(=O)N[C@@H](Cc1c[nH]c2ccccc12)C(=O)N[C@@H](CCCCN)C(=O)N[C@@H](Cc1ccccc1)C(=O)N[C@@H](CCCN=C(N)N)C(=O)N[C@@H](Cc1c[nH]c2ccccc12)C(=O)O
2. CC(C)C[C@H](NC(=O)[C@@H](N)CCCN=C(N)N)C(=O)N[C@@H](Cc1c[nH]c2ccccc12)C(=O)N[C@@H](Cc1c[nH]c2ccccc12)C(=O)N[C@@H](Cc1c[nH]c2ccccc12)C(=O)N[C@@H](Cc1c[nH]c2ccccc12)C(=O)N[C@@H](CCCN=C(N)N)C(=O)N[C@@H](CCCN=C(N)N)C(=O)N[C@@H](CCCCN)C(=O)O

[0.11, -0.30]

List reported log10 of MIC for each of these molecules:
1. CC[C@H](C)[C@H](NC(=O)[C@@H]1CCCN1C(=O)[C@H](CC(C)C)NC(=O)[C@@H](N)CC(C)C)C(=O)N[C@H](C(=O)N[C@@H](C)C(=O)N[C@@H](CC(N)=O)C(=O)N[C@@H](CC(C)C)C(=O)N[C@@H](CC(C)C)C(=O)N[C@@H](CCCCN)C(=O)N[C@@H](C)C(=O)N[C@@H](CC(C)C)C(=O)N[C@@H](CC(C)C)C(=O)O)C(C)C
2. CC[C@H](C)[C@H](NC(=O)[C@H](CCCN=C(N)N)NC(=O)[C@H](CO)NC(=O)[C@H](CC(C)C)NC(=O)[C@@H](N)CCCN=C(N)N)C(=O)N[C@H](C(=O)N[C@H](C(=O)N[C@H](C(=O)N[C@@H](CCCN=C(N)N)C(=O)N[C@H](C(=O)N[C@@H](CO)C(=O)N[C@@H](CCCN=C(N)N)C(N)=O)C(C)C)[C@@H](C)CC)C(C)C)C(C)C
3. CC[C@H](C)[C@H](NC(=O)CN)C(=O)N[C@@H](CCSC)C(=O)N[C@@H](CO)C(=O)N[C@@H](CO)C(=O)N[C@@H](CC(C)C)C(=O)N[C@@H](CCSC)C(=O)N[C@@H](CCCCN)C(=O)N[C@@H](CCCCN)C(=O)N[C@@H](CC(C)C)C(=O)N[C@@H](CCCCN)C(=O)N[C@@H](CCCCN)C(=O)N[C@@H](Cc1cnc[nH]1)C(=O)N[C@H](C(=O)N[C@@H](C)C(=O)N[C@@H](CCCCN)C(N)=O)[C@@H](C)CC

1: 0.86; 2: -0.16; 3: 1.00

Hey, just so you know, these numbers are from DBAASP.
